species: Rattus norvegicus; assay: Effective dose in the yeast-induced pyresis model in rat; format: functional
endpoint.name: ED50 (mg/kg)

[
  {
    "compound": "Cc1cc(=O)c(Oc2ccc(Br)cc2F)c(-c2ccc(S(C)(=O)=O)cc2)o1",
    "endpoint.name": "ED50",
    "observed.result": 3.2
  },
  {
    "compound": "CS(=O)(=O)c1ccc(C2=C(c3ccccc3)C(=O)OC2)cc1 [ROFECOXIB]",
    "endpoint.name": "ED50",
    "observed.result": 0.9
  },
  {
    "compound": "Cc1cc(=O)c(Oc2ccc(F)cc2F)c(-c2ccc(S(C)(=O)=O)cc2)o1",
    "endpoint.name": "ED50",
    "observed.result": 0.7
  },
  {
    "compound": "Cc1cc(=O)c(Oc2ccc(Cl)cc2)c(-c2ccc(S(C)(=O)=O)cc2)o1",
    "endpoint.name": "ED50",
    "observed.result": 2.2
  }
]

###

Reported IC50 values are given for each entry in this list.
biological target: Prostaglandin G/H synthase 2 (Homo sapiens, UniProt P35354); experiment: Inhibition concentration against cyclooxygenase-2 (COX-2) in human whole blood
Sequence (P35354 whole entry): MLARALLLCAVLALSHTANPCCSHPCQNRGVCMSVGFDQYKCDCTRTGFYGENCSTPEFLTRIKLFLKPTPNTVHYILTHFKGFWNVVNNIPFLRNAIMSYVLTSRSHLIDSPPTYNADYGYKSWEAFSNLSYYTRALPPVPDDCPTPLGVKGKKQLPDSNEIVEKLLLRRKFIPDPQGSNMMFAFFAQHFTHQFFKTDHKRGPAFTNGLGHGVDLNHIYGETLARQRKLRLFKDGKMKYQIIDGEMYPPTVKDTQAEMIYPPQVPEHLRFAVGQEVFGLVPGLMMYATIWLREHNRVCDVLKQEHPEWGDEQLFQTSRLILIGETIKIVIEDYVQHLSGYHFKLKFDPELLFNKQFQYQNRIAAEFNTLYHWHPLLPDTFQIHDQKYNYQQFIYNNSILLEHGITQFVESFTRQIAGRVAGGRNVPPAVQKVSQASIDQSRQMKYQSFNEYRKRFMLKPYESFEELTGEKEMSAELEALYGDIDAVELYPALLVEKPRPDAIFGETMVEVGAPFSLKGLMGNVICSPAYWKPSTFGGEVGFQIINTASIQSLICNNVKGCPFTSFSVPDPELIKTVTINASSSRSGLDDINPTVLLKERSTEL

[
  {
    "compound.smiles": "Cc1cc(=O)c(Oc2ccc(C(F)(F)C(F)(F)F)cc2)c(-c2ccc(S(C)(=O)=O)cc2)o1",
    "IC50": "> 10 µM"
  },
  {
    "compound.smiles": "Cc1cc(=O)c(-c2ccc(F)cc2)c(-c2ccc(S(N)(=O)=O)cc2)o1",
    "IC50": "> 10 µM"
  },
  {
    "compound.smiles": "Cc1cc(=O)c(-c2ccc3c(c2)CCCC3)c(-c2ccc(S(C)(=O)=O)cc2)o1",
    "IC50": "> 10 µM"
  }
]

Just for reference, ChEMBL document CHEMBL1149180 is where these values come from.
